Reported endpoint: melting point (°C)
Answers are plain numbers, in °C.

Below: 5 molecules and their reported melting point.
{"columns": ["Molecule", "U", "Obs value"],
 "data": [
  ["Cc1cn(-c2ccc3n(c2=O)CC2CCC(Cc4cc(C(F)(F)F)cc(C(F)(F)F)c4)N2C3=O)cn1 (stereo not drawn) [Compound 1]", "°C", 234.89],
  ["Cc1cn(-c2ccc3n(c2=O)C[C@@H]2CC[C@@H](Cc4cc(C(F)(F)F)cc(C(F)(F)F)c4)N2C3=O)cn1 (single isomer, unassigned) [Compound 4]", "°C", 254.8],
  ["Cc1cn(-c2ccc3n(c2=O)C[C@@H]2CCC[C@H](Cc4cc(C(F)(F)F)cc(C(F)(F)F)c4)N2C3=O)cn1 (single isomer, unassigned) [Compound 8]", "°C", 247.06],
  ["Cc1cn(-c2ccc3n(c2=O)C[C@@H]2CCC[C@@H](Cc4cc(C(F)(F)F)cc(C(F)(F)F)c4)N2C3=O)cn1 (single isomer, unassigned) [Compound 10]", "°C", 231.74],
  ["Cc1cn(-c2ccc3n(c2=O)C[C@@H]2CC[C@@H](Cc4cc(C(F)(F)F)cc(C(F)(F)F)c4)N2C3=O)cn1 (single isomer, unassigned) [Compound 2]", "°C", 255.25]
]}

Task item: Please report the measured melting point for Cc1cn(-c2ccc3n(c2=O)C[C@@H]2CC[C@H](Cc4cc(C(F)(F)F)cc(C(F)(F)F)c4)N2C3=O)cn1 (single isomer, unassigned) [Compound 5]
Reply: 238.34

The reported measurements were obtained from patent US10112943B2.
